The origin of these recorded values is the Human Domainome abundance scans (Beltran et al. 2025).

B1: Ankyrin-1, residues 1405 to 1484; numbered along this chain, P16157 (parent)
chain: MKMAVISEHLGLSWAELARELQFSVEDINRIRVENPNSLLEQSVALLNLWVIREGQNANMENLYTALQSIDRGEIVNMLE

# Variants of: B1
# METHOD: abundance fitness (aPCA) (normalised: wild type 0, dead -1); higher = more abundant; growth selection in yeast, the domain comes from the species named
# CONDITION_NOTES: Homo sapiens
abundance fitness vs -0.1: at or above is Criterion met, below is Criterion not met.

Please review the entries below; each comes with its answer.
R72S Criterion not met
N35M Criterion not met
G73N Criterion not met
L40G Criterion not met
I52G Criterion not met

Kindly determine if abundance fitness recorded for `L79E` is above or exactly -0.1.
Criterion not met

Kindly determine if abundance fitness recorded for `V51K` is above or exactly -0.1.
Criterion met

Kindly determine if abundance fitness recorded for `A66L` is above or exactly -0.1.
Criterion not met

Kindly determine if abundance fitness recorded for `I31S` is above or exactly -0.1.
Criterion not met

Kindly determine if abundance fitness recorded for `V44T` is above or exactly -0.1.
Criterion met
